Data origin: PubChem BioAssay AID1835

Here, each record is paired with measured activity increase over dofetilide control, less the hit threshold data.
Biological target: Voltage-gated inwardly rectifying potassium channel KCNH2 (Homo sapiens) (UniProt Q12809)
Sequence (Q12809 whole entry, looked up): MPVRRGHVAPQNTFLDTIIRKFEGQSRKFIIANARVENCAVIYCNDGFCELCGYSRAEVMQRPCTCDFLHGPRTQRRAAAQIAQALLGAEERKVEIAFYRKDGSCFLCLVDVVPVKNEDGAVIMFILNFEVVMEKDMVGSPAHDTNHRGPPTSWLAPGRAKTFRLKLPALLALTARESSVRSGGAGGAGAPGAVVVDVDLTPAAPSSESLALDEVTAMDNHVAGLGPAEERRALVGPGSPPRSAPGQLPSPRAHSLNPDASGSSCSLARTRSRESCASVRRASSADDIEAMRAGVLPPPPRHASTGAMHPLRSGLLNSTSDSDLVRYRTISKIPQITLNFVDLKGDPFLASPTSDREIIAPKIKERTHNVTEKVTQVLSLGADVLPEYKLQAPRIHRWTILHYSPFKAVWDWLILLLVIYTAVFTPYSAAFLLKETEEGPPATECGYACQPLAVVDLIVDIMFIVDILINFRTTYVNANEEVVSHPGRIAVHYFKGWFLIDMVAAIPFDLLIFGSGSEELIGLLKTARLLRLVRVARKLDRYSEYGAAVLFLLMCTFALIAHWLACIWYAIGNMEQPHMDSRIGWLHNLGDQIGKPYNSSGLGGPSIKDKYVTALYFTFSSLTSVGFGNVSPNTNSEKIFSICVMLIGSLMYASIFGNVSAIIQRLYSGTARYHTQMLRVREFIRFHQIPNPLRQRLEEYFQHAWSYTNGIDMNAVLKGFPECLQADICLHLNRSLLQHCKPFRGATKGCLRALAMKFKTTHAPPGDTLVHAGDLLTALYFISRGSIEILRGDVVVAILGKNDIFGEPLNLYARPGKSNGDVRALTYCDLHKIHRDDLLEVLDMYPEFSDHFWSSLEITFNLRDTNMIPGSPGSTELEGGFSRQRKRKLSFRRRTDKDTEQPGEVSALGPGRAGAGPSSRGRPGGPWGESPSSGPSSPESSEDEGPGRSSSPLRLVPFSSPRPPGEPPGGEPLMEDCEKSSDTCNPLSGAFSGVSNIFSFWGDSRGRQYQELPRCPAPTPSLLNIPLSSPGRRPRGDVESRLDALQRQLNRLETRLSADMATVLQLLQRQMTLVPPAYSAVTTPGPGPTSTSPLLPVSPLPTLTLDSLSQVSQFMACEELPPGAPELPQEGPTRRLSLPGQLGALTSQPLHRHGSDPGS
Assay: hERG protection against dofetilide inhibition, confirmation, cell-based, thallium flux, duplicate retest, dofetilide IC70 (AID 1835)
Details: hERG cell line, FluxOR thallium flux, dofetilide-blocked; at 10 µM; hits give high values
About 750 (31%) of roughly 2,400 compounds were called active. Some of the results follow.
Report the figure in % without appending any unit label.

>>> print(df.to_string())
                                   compound  valuemeasured
0   C=CCNC(=O)c1onc(CSc2ccc(OC)cc2)c1C(=O)O            -11
1  COCCOC(=O)C1=C(C)Nc2ncnn2C1c1ccc(F)cc1 (stereo unspecified)            -26
2  CN(C)/C=C1/C(=O)N(c2ccc([N+](=O)[O-])cc2)N=C1c1ccccc1              2
3          CCOC(=O)c1sc2nc(C)[nH]c(=S)c2c1C             21
4  O=C(Cn1nnc(-c2cccc(C(F)(F)F)c2)n1)N1CCCCCC1             -8

Exam item: Sample `Cc1ccc2[nH]c3c(c2c1)CNCC3` — what was its activity increase over dofetilide control, less the hit threshold?
Marked response: -15

Exam item: Sample `CCOC(=O)c1sc2nc(Cc3ccc(Cl)cc3)[nH]c(=S)c2c1C` — what was its activity increase over dofetilide control, less the hit threshold?
Marked response: 52

Exam item: Sample `O=c1c2ccc(Cl)cc2nc(-c2cccc(C(F)(F)F)c2)n1O` — what was its activity increase over dofetilide control, less the hit threshold?
Marked response: 94

Exam item: Sample `CC1=NN(c2ccccc2)C(=O)/C1=C/c1ccc(-c2ccc(C)c(C(=O)O)c2)o1` — what was its activity increase over dofetilide control, less the hit threshold?
Marked response: -18

Exam item: Sample `CCCCNC(=O)COC(=O)c1ccc(NC(C)=O)cc1` — what was its activity increase over dofetilide control, less the hit threshold?
Marked response: -18

Exam item: Sample `Cc1cc([N+](=O)[O-])c(C)cc1-c1ccc(/C=N/NC(=O)Cn2nnnc2N)o1` — what was its activity increase over dofetilide control, less the hit threshold?
Marked response: 0

###

Target: Voltage-gated inwardly rectifying potassium channel KCNH2 (Homo sapiens)
Test: hERG protection against dofetilide inhibition, confirmation, cell-based, thallium flux, duplicate retest, dofetilide IC70 (AID 1835)
Conditions: hERG cell line, FluxOR thallium flux, dofetilide-blocked; at 10 µM; hits give high values
The whole screen tested about 2,400 compounds, of which about 750 (31%) were called active. The list shows a part of the results.
observedProperty: activity increase over dofetilide control, less the hit threshold (%)
Report the figure in % without appending any unit label.

// below: answered compounds
>>> print(df.to_string())
                                   compound  valuemeasured
0        COc1ccc(C(=O)Nc2ccccc2C(=O)O)cc1Cl              5
1  COc1ccc2nc(-n3c(O)c(C4=c5ccccc5=NC4=O)[nH]c3=S)sc2c1            -14
2  O=C(Nc1ccccc1C(=O)O)c1cccc(NC(=O)c2ccccc2Br)c1             -5

Exam item: Sample `O=C(CCCOc1ccc(Cl)cc1Cl)Nc1ccccc1C(=O)O` — what was its activity increase over dofetilide control, less the hit threshold?
Marked response: 3

Exam item: Sample `O=C(N/N=C/c1ccsc1)C1CC1` — what was its activity increase over dofetilide control, less the hit threshold?
Marked response: -4

Exam item: Sample `CCCSC(=S)c1c(C)[nH]n(-c2ccccc2)c1=O` — what was its activity increase over dofetilide control, less the hit threshold?
Marked response: 0

Exam item: Sample `CN(C)C(=O)c1ccc(NC(=O)c2cncc(Br)c2)cc1` — what was its activity increase over dofetilide control, less the hit threshold?
Marked response: -12

Exam item: Sample `O=C(Nc1ccccc1C(=O)O)c1cncc(Br)c1` — what was its activity increase over dofetilide control, less the hit threshold?
Marked response: 12

Exam item: Sample `O=C(O)c1sccc1OCc1ccccc1` — what was its activity increase over dofetilide control, less the hit threshold?
Marked response: -8

Exam item: Sample `COc1cc(C(=S)N2CCOCC2)ccc1OC(=O)c1ccc([N+](=O)[O-])cc1[N+](=O)[O-]` — what was its activity increase over dofetilide control, less the hit threshold?
Marked response: -22

Exam item: Sample O=C(NC1CCCC1)C(c1ccncc1)N(Cc1ccccc1F)C(=O)c1csnn1 (stereo unspecified) — what was its activity increase over dofetilide control, less the hit threshold?
Marked response: -1

###

Target: Voltage-gated inwardly rectifying potassium channel KCNH2 (Homo sapiens) (UniProt Q12809)
Test: hERG protection against dofetilide inhibition, confirmation, cell-based, thallium flux, duplicate retest, dofetilide IC70 (AID 1835)
Settings: hERG cell line, FluxOR thallium flux, dofetilide-blocked; at 10 µM
The campaign covered roughly 2,400 compounds. About 750 (31%) were called active.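 How the source made its calls: active means median signal gain over dofetilide-blocked control wells reaching their mean plus 3 SD, so readout 1 at least 0; inactive means the rest.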 The list shows a part of the results.
API: response.call in Y for active, N for inactive

The examples below pair each entry with its known result.
                                   compound  grouplabel
0  CCOc1ccc(C(=O)N(CN2CCCC2=O)c2ccc(C)cc2)cc1           Y
1              CCCNC(=O)N(C)c1nncnc1C(=O)NC           N

Exam item: Could you please tell me the result logged for CCN1CCCC(CO)(Cc2ccccc2)C1 (configuration not stated) in this assay?
Marked response: N

Exam item: Could you please tell me the result logged for COCC(=O)N(Cc1ccco1)c1nnc(C2CCOC2)s1 (configuration not stated) in this assay?
Marked response: N

Exam item: Could you please tell me the result logged for `CN(C(=S)NC(=O)c1ccccc1Br)C1CCCCC1` in this assay?
Marked response: Y

Exam item: Could you please tell me the result logged for `O=C(c1cccs1)N1CCN(C23CC4CC(CC(C4)C2)C3)CC1` in this assay?
Marked response: N

Exam item: Could you please tell me the result logged for `CC1CCN(C(=S)NC(=O)c2cccs2)CC1` in this assay?
Marked response: Y

Exam item: Could you please tell me the result logged for `O=C(NC(=S)N1CCN(c2ccccc2)CC1)c1ccccc1` in this assay?
Marked response: Y

Exam item: Could you please tell me the result logged for `CCc1c(C)nc(SC)n(CC#N)c1=O` in this assay?
Marked response: N

Exam item: Could you please tell me the result logged for `O=C(NC(=S)N1CCN(c2ccccc2)CC1)c1c(F)cccc1F` in this assay?
Marked response: N

Exam item: Could you please tell me the result logged for `CCN(C(=S)NC(=O)c1ccccc1Br)C1CCCCC1` in this assay?
Marked response: Y

Exam item: Could you please tell me the result logged for `CC(=O)Oc1c(-c2ccc(Br)o2)oc2ccccc2c1=O` in this assay?
Marked response: Y

###

Here, each record is paired with measured activity increase over dofetilide control, less the hit threshold data.
Target: Voltage-gated inwardly rectifying potassium channel KCNH2 (Homo sapiens)
Assay: hERG protection against dofetilide inhibition, confirmation, cell-based, thallium flux, duplicate retest, dofetilide IC70 (AID 1835)
Details: hERG cell line, FluxOR thallium flux, dofetilide-blocked; at 10 µM; hits give high values
The whole screen tested about 2,400 compounds, of which about 750 (31%) were called active. This is one part of the list.
Report the figure in % without appending any unit label.

// below: answered compounds
>>> print(df.to_string())
                                   compound                              targetentity  valuemeasured
0  CCCCNC(=O)N1CCCC(C(=O)c2cc(C)c(OC)c(C)c2)C1 (configuration not stated)  Voltage-gated inwardly rectifying potassium channel KCNH2 (Homo sapiens)            -22
1  C=CCN(c1ccccc1)S(=O)(=O)c1cccc(C(=O)Nc2nnc(SCC)s2)c1  Voltage-gated inwardly rectifying potassium channel KCNH2 (Homo sapiens)             -4
2     Cc1ccc(O)c(C(=O)CC(=O)c2ccc(Cl)cc2)c1  Voltage-gated inwardly rectifying potassium channel KCNH2 (Homo sapiens)             -2
3  CCc1ccc(NC(=O)C(=O)NNC(=O)c2ccc(OC)cc2)cc1  Voltage-gated inwardly rectifying potassium channel KCNH2 (Homo sapiens)             87
4  Cc1ccc(S(=O)(=O)N2CCOCC2)cc1NC(=O)COC(=O)c1cccnc1Cl  Voltage-gated inwardly rectifying potassium channel KCNH2 (Homo sapiens)            -15
5  COc1ccc(NC(=O)c2ccc(COCC(F)(F)C(F)F)cc2)cc1  Voltage-gated inwardly rectifying potassium channel KCNH2 (Homo sapiens)            -14
6  CCN1C(=O)c2cccc3c(S(=O)(=O)NCC4CCCO4)ccc1c23 (configuration not stated)  Voltage-gated inwardly rectifying potassium channel KCNH2 (Homo sapiens)            -22
7      Fc1ccc2nc(Nc3nc4c(F)cc(F)cc4s3)sc2c1  Voltage-gated inwardly rectifying potassium channel KCNH2 (Homo sapiens)              4

Exam item: Sample `COc1ccc(OCC(=O)NNC(=O)C(=O)Nc2ccc(C)cc2)cc1` — what was its activity increase over dofetilide control, less the hit threshold?
Marked response: -11
